Where do the numbers come from? From paper doi:10.1101/2020.01.09.899237.

# assay_target: FITC-labelled JD_(1-77) (human, UniProt Q8NHS0 1-77, FITC-maleimide label (site not stated))
# Sequence (Q8NHS0 1-77): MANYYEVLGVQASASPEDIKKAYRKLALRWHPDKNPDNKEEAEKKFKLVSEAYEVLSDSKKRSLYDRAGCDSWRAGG
# test_protocol: MST
pKd: −log10 of the molar value.

binder	pKd
DnaJB8 C-terminal domain CTD_(170-232) (domain or fragment, human, UniProt Q8NHS0 170-232, looked up) GGSSSGSSGFKSVMSSTEMINGHKVTTKRIVENGQERVEVEEDGQLKSVTVNGKEQLKWMDSK	5.27
